Protocol text: Selectivity index, ratio of HC50 for hemolytic activity in sheep RBC to MIC for antibacterial activity against Staphylococcus aureus ATCC 43300
Assay type: toxicity
Assay setup: sheep red blood cells (erythrocytes)
Classes are defined on selectivity ratio with ranges low band = under 20, middle band = from 20 up to 100, high band = 100 and over

1. C=CCc1ccc(OCCN)c(-c2ccc(OCCN)c(CC=C)c2)c1.Cl.Cl: middle band
2. C=CCc1ccc(OCC(=O)NC(CCCCN)C(=O)NCC23CC4CC(CC(C4)C2)C3)c(-c2ccc(OCC(=O)NC(CCCCN)C(=O)NCC34CC5CC(CC(C5)C3)C4)c(CC=C)c2)c1.O=C(O)C(F)(F)F.O=C(O)C(F)(F)F (stereo unspecified): high band
3. C=CCc1ccc(OCC(=O)NCCC[N+](C)(C)CCCCCC)c(-c2ccc(OCC(=O)NCCC[N+](C)(C)CCCCCC)c(CC=C)c2)c1.[Br-].[Br-]: low band

Textbook exercise: identify the category of the compound given here, C=CCc1ccc(OCCCN)c(-c2ccc(OCCCN)c(CC=C)c2)c1.Cl.Cl , according to its measured value.
high band

Textbook exercise: identify the category of the compound given here, C=CCc1ccc(OCC(=O)NCCC[N+](C)(C)CCCCCCCCCC)c(-c2ccc(OCC(=O)NCCC[N+](C)(C)CCCCCCCCCC)c(CC=C)c2)c1.[Br-].[Br-] , according to its measured value.
low band

Textbook exercise: identify the category of the compound given here, C=CCc1ccc(OCC(=O)NCCC[N+](C)(C)CCCCCCCC)c(-c2ccc(OCC(=O)NCCC[N+](C)(C)CCCCCCCC)c(CC=C)c2)c1.[Br-].[Br-] , according to its measured value.
middle band

Textbook exercise: identify the category of the compound given here, C=CCc1ccc(OCCC[N+](C)(C)CCCCCC)c(-c2ccc(OCCC[N+](C)(C)CCCCCC)c(CC=C)c2)c1.[Br-].[Br-] , according to its measured value.
high band

Textbook exercise: identify the category of the compound given here, C=CCc1ccc(OCC(=O)NC(CCCCN)C(=O)NCCCCCC)c(-c2ccc(OCC(=O)NC(CCCCN)C(=O)NCCCCCC)c(CC=C)c2)c1.O=C(O)C(F)(F)F.O=C(O)C(F)(F)F (stereo unspecified) , according to its measured value.
middle band

Textbook exercise: identify the category of the compound given here, C=CCc1ccc(OCC(=O)NC(CCCCN)C(=O)NCCCCCCCCCC)c(-c2ccc(OCC(=O)NC(CCCCN)C(=O)NCCCCCCCCCC)c(CC=C)c2)c1.O=C(O)C(F)(F)F.O=C(O)C(F)(F)F (stereo unspecified) , according to its measured value.
high band

Textbook exercise: identify the category of the compound given here, C=CCc1ccc(OCCC[N+](C)(C)CCCCCCCC)c(-c2ccc(OCCC[N+](C)(C)CCCCCCCC)c(CC=C)c2)c1.[Br-].[Br-] , according to its measured value.
low band

Textbook exercise: identify the category of the compound given here, C=CCc1ccc(OCCC[N+](C)(C)CCCC)c(-c2ccc(OCCC[N+](C)(C)CCCC)c(CC=C)c2)c1.[Br-].[Br-] , according to its measured value.
high band
